assay: 384-well plate pilot, post-Golgi transport modulator project, inhibition of yeast transport mutant growth (AID 636); details: absorbance 615 nm, about 18 h, stronger effect = higher value
endpoint-name: inhibition (%)
Give bare numbers, in %.

// known answers, use as guide
CC(=O)c1ccc(NC(=O)c2noc3c2CCCCC3)cc1; -5.26
Clc1ccc(CSc2nnc(Cn3cnc4ccccc43)o2)cc1; -4.32
COC(=O)c1cc(Br)c(=O)n(CCC2=CCCCC2)c1; -0.27
COc1ccc(N=c2scc(-c3ccc(S(=O)(=O)N4CCOCC4)cc3)n2CCCO)cc1; 1.67
CCOC(=O)CSc1nnc([C@H](C)NC(=O)OC(C)(C)C)o1; -5.58
Cc1ccc(C(=O)NC2CC3CCCC(C2)N3C(=O)NC2CCCCC2)cc1 (centres undefined); -5.73
Cc1c(NC(=O)CSc2nnc3sc4ccccc4n23)c(=O)n(-c2ccccc2)n1C; 0.65
CC(C)(C)NC(=O)Cn1nnnc1-c1nonc1N; -6.53

As a next step, examine the compound that follows.
Read the entry C=CCc1c(C)nc(SC)nc1Nc1ccc(C(=O)O)cc1 and write its reported inhibition.
-6.89

* * *

For each entry below, report its viability value.
test: growth inhibitors of H69AR lung tumor, primary screen, human, duplicate replicates (AID 580); settings: H69AR lung tumor cells viability, ATP luminescence, 72 h; at 10 µM; stronger effect = lower value;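 also: 100% = mean luminescence of untreated wells and 0% = no signal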
Numbers only, in %.

CCC(=O)N1CCc2cc(OC)c(OC)cc2C1COc1ccc(C(=O)OC)cc1 (stereo unspecified); 91.5

Batch lookup, viability per entry.
1. Brc1cccc(-c2cnc3n2CCCCC3)c1
2. CN1CCN(CCCNC(=O)C2CC(=O)N(C3CCCCC3)C2)CC1 (stereo unspecified)
3. CCOc1cc(CN2CCN(C(=O)c3ccco3)CC2)ccc1OC
4. CCOCC(=O)Nc1sc2c(c1C(=O)OCC)CCCC2
5. CC1CCN(CCCNC(=O)c2cn(C)c3ccc(S(=O)(=O)N4CCCC4)cc3c2=O)CC1
6. COc1cccc(C(=O)n2cnnc2N)c1OC
7. Cc1cc(C)n(-c2ccc(C(=O)Nc3ccc4c(c3)OCCO4)cc2)n1

1: 91.5; 2: 91.4; 3: 89.5; 4: 90.5; 5: 91; 6: 89.9; 7: 89

Return reported viability values for all items listed beneath this line.
1. CCCCCCOC(=O)C(C#N)c1nc2ccccc2nc1N1CCCCC1 (stereo unspecified)
2. CCOc1cc(C(=O)N(C)c2ccccc2)cc(OCC)c1OCC

89.1
89.2

# batch size: 6; output viability per entry
1. Clc1ccc2nc(N3CCCCC3)[nH]c2c1
2. Cc1c(NC2=NC3(CCCCC3)Cc3ccccc32)c(=O)n(-c2ccccc2)n1C
3. CCOC(=O)Nc1ccc2c(CN3C(=O)NC4(CCCC4)C3=O)cc(=O)oc2c1
4. O=C(OCC(=O)c1cccs1)C1=COCCO1
5. O=C(NCN1CCCCC1)c1cnccn1
6. COC(=O)c1ccc(CSc2nc3c(cnn3-c3ccc(F)cc3)c(=O)[nH]2)o1

91.9
92.5
88.3
89.1
89.9
92.5

* * *

experiment: reversal of MRP1-mediated doxorubicin resistance, pilot screen, H69AR cells, doxorubicin co-treatment (AID 601); conditions: H69AR cells + 2 uM doxorubicin, CellTiter-Glo, 72 h; at 10 µM; stronger effect = higher value
Field: differential viability (reversal). Provide a value for each of the compounds that follow.
Numbers only, in %.

COc1cc(S(=O)(=O)n2nnc3ccccc32)c(OC)cc1Cl; -3.02
COc1ccc(NC(=O)C(C)NS(=O)(=O)c2ccc(NC(C)=O)cc2)cc1Cl (stereo not drawn); 7.65
CC(=O)N1CCc2cc(Br)cc(S(=O)(=O)NCCCN3CCCC(C)C3)c21 (stereo not drawn); 0.035

I have 6 compounds here; please give me differential viability (reversal) for each one.
1. CCOc1cc(C2C(C#N)=C(N)OC(C)=C2C(C)=O)cc(Br)c1O (stereo not drawn)
2. O=C(CSc1nnc2scc(-c3ccccc3)n12)N1CCN(Cc2ccccc2)CC1
3. CCOc1cc2[nH]c(=O)n(CCCCC(=O)N3CCCCCC3)c(=O)c2cc1OCC
4. COc1cc(C)nc(OCCNC(=O)COc2ccc(Cl)cc2C)n1
5. O=C(Nc1ccc2c(c1)OCO2)C1CCCN1C(=O)Nc1ccccc1F (stereo not drawn)
6. CCOC(=O)N1CCN(C(=O)c2csc3c2CCCCC3)CC1

1. 6.05
2. 8.52
3. 2.38
4. 8.69
5. 8.28
6. -1.73

Batch lookup, differential viability (reversal) per entry.
1. O=C1NC(c2cccs2)Nc2ccccc21 (stereo not drawn)
2. COC(=O)COc1ccc(S(=O)(=O)NCCC2=CCCCC2)cc1
3. c1ccc(-c2nnc(OCCN3CCOCC3)c3ccccc23)cc1
4. Cc1cc(Nc2ccc(C(=O)O)cc2)n2nc(C)nc2n1
5. CC1=Nn2c(nnc2-c2cc(-c3ccccc3)n[nH]2)SC1

1: -4.77; 2: -3.67; 3: -5.76; 4: 9.93; 5: 7.02

For each of the compounds below, state differential viability (reversal).
1. O=C(CCCCCN1C(=O)CCC1=O)NCc1ccccc1
2. Nc1c(S(=O)(=O)c2cccs2)c2nc3ccccc3nc2n1CC1CCCO1 (stereo not drawn)
3. CCOC(=O)C1=C(C)N=c2s/c(=C\c3cccn3C)c(=O)n2C1c1cccc(OC)c1OC (stereo not drawn)
4. COc1cccc(N2CCN(Cc3cccnc3)CC2)c1

[13.5, 4.9, -1.62, -7.62]

* * *

assay: reversal of MRP1-mediated doxorubicin resistance, pilot screen, H69AR cells, doxorubicin co-treatment (AID 601); details: H69AR cells + 2 uM doxorubicin, CellTiter-Glo, 72 h; measured here: viability with 2 uM doxorubicin; at 10 µM; stronger effect = lower value
endpoint-name: viability (%)
Give bare numbers, in %.

Recorded results for 3 compounds are shown here.
O=C(NC1CCCCC1)n1c(=O)oc2ccc(Cl)cc21; 76.7
Cc1ccc(NC(=O)CSc2nnc(NC(=O)CN3CCOCC3)s2)cc1; 84.4
CCC(=O)N1CCCc2cc(S(=O)(=O)N3CCCc4ccccc43)ccc21; 81.5

Okay, next one:
Given the compound Cc1nc(NS(=O)(=O)c2ccccc2)sc1NC(=O)OC(C)C , write its reported viability.
98.7

* * *

experiment: HUVEC growth inhibition – cell-based, human, primary screen (AID 575); conditions: HUVEC proliferation, CellTiter-Glo luminescence, 72 h; at 10 µM; stronger effect = lower value;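 also: 100% = median of untreated cell wells with 0.1% DMSO on each plate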
I'd be grateful if you could share measured viability for these entries.
Answers are plain numbers, in %.

Cn1c(=O)c2c(nc(N3CCCCC3)n2CCSc2nc3ccccc3o2)n(C)c1=O; 88.4
O=C1CSC(=Nc2ccc(O)cc2)N1c1ccc(O)cc1; 89.2

Now look at this one.
Please give the documented viability of CCc1nc(N)c(C#N)c(-c2ccncc2)c1C
89.2

* * *

I'd be grateful if you could share measured inhibition for these entries.
test: growth suppression of yeast trafficking mutant, preliminary HTS, modulators of trafficking downstream of Golgi apparatus project, 1536-format plate, OD 615 nm (AID 637); conditions: yeast transport mutant growth, absorbance 615 nm, 18 h; stronger effect = higher value
Answers are plain numbers, in %.

CC(NC(=O)c1ccccc1NC(=O)c1ccco1)C(=O)O (configuration not stated); 2.1
COc1cccc(C2=NOC(C(=O)Nc3ccc(C(C)=O)cc3)C2)c1 (configuration not stated); -4.73
O=C1CCc2cc(S(=O)(=O)N3CCC(C(=O)NCc4ccccn4)CC3)ccc2N1; 14.4
O=C(c1ccc2ccccc2n1)N1CCN(c2ccccc2)CC1; -3.61
Cc1nc2ccccn2c1P(=O)(N1CCCCC1)N1CCCCC1; 0

Provide inhibition values for the following items, in order.
1. CC1(C)CC(CCNC(=O)c2ccco2)CC(C)(C)N1
2. CCOc1ccc(C2C(C#N)=C(N)Oc3cc(C)n(CCN(C)C)c(=O)c32)cc1OCC (configuration not stated)
3. O=C(Nc1ccc(F)cc1F)NC1CC(=O)N(Cc2ccccc2)C1 (configuration not stated)
4. COc1cccc(C(=O)n2cnnc2N)c1OC
5. Cc1cc2c(s1)c1cnn(CC(=O)NCCc3ccccc3)c(=O)c1n2C
6. Cc1ccc(S(=O)(=O)C2(C(=O)NC3CCCC3)CC2)cc1

1: -4.76; 2: -1.43; 3: 26.2; 4: -3.49; 5: -3.5; 6: -2.22

Hi, could you look up inhibition for each item in my list?
1. COc1ccc(-c2nc(C#N)c(NCCCN(C)C)o2)cc1OC
2. Cc1cc2ncn(C(=O)c3c(-c4ccccc4)noc3C)c2cc1C

1. -5
2. -6.23

Report inhibition for every entry below.
1. Cc1cccc(-c2cc3nc4c(c(N5CCC6(CC5)OCCO6)n3n2)CCCC4)c1
2. COc1ccc(S(=O)(=O)Nc2ccc(S(=O)(=O)N3CCCCC3)cc2)cc1OC
3. COc1ccc(C(c2nnnn2C2CCCC2)N2CCN(C3CCCC3)CC2)cc1OC (configuration not stated)

[9.37, -2, -2.22]

Provide reported inhibition for each item, in the same order as listed.
1. CC(NC(=O)COc1ccccc1)C(=O)NC1=NCCS1 (configuration not stated)
2. Cc1nc2ccccc2cc1C(=O)NCc1ccco1
3. CCN(CC)c1ccc(CNc2ccc(Br)cn2)cc1
4. O=c1c2ccccc2sn1-c1ccc(S(=O)(=O)N2CCCCC2)cc1

1. -11.8
2. 7.42
3. -3.11
4. 9.17

Hi, could you look up inhibition for each item in my list?
1. CC1=C(C(=O)NC2CCCC(C)C2C)C2(CCCCC2)OC1=O (configuration not stated)
2. CC1(C)COCN1S(=O)(=O)c1ccc(C(=O)Nc2nnc(-c3ccc(Cl)s3)o2)cc1
3. CC(C)CC(c1nnnn1C1CCCC1)N1CCN(c2ccccc2F)CC1 (configuration not stated)
4. CCOC(=O)N1CCN(c2nc(-c3ccc(Cl)cc3)cs2)CC1
5. COc1ccc(NC(=O)CCCN2C(=O)C3C4C=CC(C4)C3C2=O)c(OC)c1 (configuration not stated)

1. 3.67
2. -1.43
3. 10.7
4. -7.83
5. -5.09

Would you be so kind as to report inhibition for each listed record?
1. COC(=O)c1ccccc1S(=O)(=O)N(CCCN1CCOCC1)Cc1cccs1
2. Cc1nnc(SCC(=O)N2CCC(C(=O)Nc3nccs3)CC2)n1Cc1ccccc1

1: 5.4; 2: 0.33
